Molecular target: BTK (Homo sapiens, UniProt Q06187)
Sequence (Q06187 whole entry): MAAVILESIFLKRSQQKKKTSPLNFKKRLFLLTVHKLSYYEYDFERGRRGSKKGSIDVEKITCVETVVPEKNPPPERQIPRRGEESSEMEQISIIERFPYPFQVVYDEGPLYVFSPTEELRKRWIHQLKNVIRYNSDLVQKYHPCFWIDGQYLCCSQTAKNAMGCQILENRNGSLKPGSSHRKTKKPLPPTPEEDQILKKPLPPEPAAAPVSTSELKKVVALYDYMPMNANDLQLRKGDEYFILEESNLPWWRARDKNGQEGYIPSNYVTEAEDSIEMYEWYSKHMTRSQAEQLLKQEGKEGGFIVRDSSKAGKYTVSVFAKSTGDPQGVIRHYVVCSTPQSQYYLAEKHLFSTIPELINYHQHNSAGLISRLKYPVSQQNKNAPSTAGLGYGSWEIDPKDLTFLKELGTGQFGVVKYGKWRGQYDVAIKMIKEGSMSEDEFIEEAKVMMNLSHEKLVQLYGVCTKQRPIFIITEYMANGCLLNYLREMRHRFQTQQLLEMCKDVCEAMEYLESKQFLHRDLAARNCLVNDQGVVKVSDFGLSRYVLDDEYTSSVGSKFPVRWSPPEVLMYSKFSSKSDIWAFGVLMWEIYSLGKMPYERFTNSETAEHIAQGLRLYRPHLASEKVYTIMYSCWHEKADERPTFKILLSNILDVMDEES
Assay: In vitro BTK kinase assay (PhosphoSens)
Type: biochemical
Set-up: purchased SignalChem B10-10H-10
Settings: Supplementary Figure 5; drug concentration 1000000 pM; replicates; read-out: Inhibition(%)
# activity at 1 µM >= 3% gives rule met, anything below gives rule not met

1. CN(CCCNC(=O)CNc1cccc2c1C(=O)N(C1CCC(=O)NC1=O)C2=O)CCCC(=O)N1CCCC(n2nc(-c3ccc(Oc4ccccc4)cc3)c3c(N)ncnc32)C1 (stereo not drawn) : rule met
2. CN1C(=O)CCC(N2C(=O)c3cccc(NCC(=O)NCCCN(C)C(C)(C)C=C(C#N)C(=O)N4CCCC(n5nc(-c6ccc(Oc7ccccc7)cc6)c6c(N)ncnc65)C4)c3C2=O)C1=O (stereo not drawn) : rule not met
3. CN(CC=CC(=O)N1CCCC(n2nc(-c3ccc(Oc4ccccc4)cc3)c3c(N)ncnc32)C1)CCCNC(=O)CNc1cccc2c1C(=O)N(C1CCC(=O)NC1=O)C2=O (stereo not drawn) : rule not met
4. CCC(=O)N1CCCC(n2nc(-c3ccc(Oc4ccccc4)cc3)c3c(N)ncnc32)C1 (stereo not drawn) : rule met

----------
Target: BTK (Homo sapiens)
Assay: In vitro BTK kinase assay (PhosphoSens)
Assay type: biochemical
Set-up: purchased SignalChem B10-10H-10
Details: Supplementary Figure 5; drug concentration 320 pM; replicates; read-out: Inhibition(%)
measurement label: activity at 0.00032 µM (%)

1. CN(CC=CC(=O)N1CCCC(n2nc(-c3ccc(Oc4ccccc4)cc3)c3c(N)ncnc32)C1)CCCNC(=O)CNc1cccc2c1C(=O)N(C1CCC(=O)NC1=O)C2=O (stereo not drawn) : 65.7
2. CN(CCCNC(=O)CNc1cccc2c1C(=O)N(C1CCC(=O)NC1=O)C2=O)CCCC(=O)N1CCCC(n2nc(-c3ccc(Oc4ccccc4)cc3)c3c(N)ncnc32)C1 (stereo not drawn) : 96.2
3. CCC(=O)N1CCCC(n2nc(-c3ccc(Oc4ccccc4)cc3)c3c(N)ncnc32)C1 (stereo not drawn) : 92.7
4. CN1C(=O)CCC(N2C(=O)c3cccc(NCC(=O)NCCCN(C)C(C)(C)C=C(C#N)C(=O)N4CCCC(n5nc(-c6ccc(Oc7ccccc7)cc6)c6c(N)ncnc65)C4)c3C2=O)C1=O (stereo not drawn) : 106
5. CC(C)(C)C=C(C#N)C(=O)N1CCCC(n2nc(-c3ccc(Oc4ccccc4)cc3)c3c(N)ncnc32)C1 (stereo not drawn) : 96.8
6. CN(CCCNC(=O)CNc1cccc2c1C(=O)N(C1CCC(=O)NC1=O)C2=O)C(C)(C)C=C(C#N)C(=O)N1CCC[C@@H](n2nc(-c3ccc(Oc4ccccc4)cc3)c3c(N)ncnc32)C1 (stereo partly drawn) : 87.3

----------
Target: truncated Cereblon protein
Experiment: CRBN binding assay (fluorescence quenching)
Conditions: truncated Cereblon protein; fluorescence quenching; triplicates
pKd: −log10 of the molar value.
measurement label: pKd

1. Nc1cccc2c1C(=O)N(C1CCC(=O)NC1=O)C2=O (stereo not shown) [Pomalidomide, pomalidomide, reference compound] : 5.85

----------
Assay: Permeability by lipid-PAMPA method (Pharmaron)
Assay type: in vitro ADME
Details: PAMPA, pH 7.4
Consider the following compounds and their measured Papp at 16 h, 10 μM readings.
measurement label: Papp at 16 h, 10 μM

1. CN(CCCNC(=O)CNc1cccc2c1C(=O)N(C1CCC(=O)NC1=O)C2=O)C(C)(C)C=C(C#N)C(=O)N1CCC[C@@H](n2nc(-c3ccc(Oc4ccccc4)cc3)c3c(N)ncnc32)C1 (stereo partly drawn) [RC-1] : < 0.00692 ×10⁻⁶ cm/s
2. CN(CC=CC(=O)N1CCCC(n2nc(-c3ccc(Oc4ccccc4)cc3)c3c(N)ncnc32)C1)CCCNC(=O)CNc1cccc2c1C(=O)N(C1CCC(=O)NC1=O)C2=O (stereo not drawn) [IRC-1] : < 0.0245 ×10⁻⁶ cm/s
3. CN(CCCNC(=O)CNc1cccc2c1C(=O)N(C1CCC(=O)NC1=O)C2=O)CCCC(=O)N1CCCC(n2nc(-c3ccc(Oc4ccccc4)cc3)c3c(N)ncnc32)C1 (stereo not drawn) [RNC-1] : < 0.00209 ×10⁻⁶ cm/s
